Tested on: Zymosan Stimulated Macrophaqes
Assay: Test A: Inhibition of Arachidonic Acid Release from Zymosan Stimulated Macrophages
Format: cell-based, mouse (female MF1)
Settings: Mus musculus, Macrophage, 5 h, inhibition of arachidonic acid release; six concentrations (100, 50, 20, 10, 5 and 1 μM); 5 h with zymosan; read-out: Test A IC50
pIC50: −log10 of the molar value. Where a name gives a salt, the structure may show the parent alone.

molecule	pIC50
CC(NCCCn1ccnc1)c1cc(Cl)ccc1Cl (stereo not drawn) [Example 15]	4.14
Cc1cc(C(C)NCCCn2ccnc2)ccc1Cl (stereo not drawn) [Example 12]	4.44
Cc1cn(CCCNCc2ccc(Cl)cc2)c(C)n1 [Example 42, dihydrochloride]	5.10
CC(C)(NCCCCCn1ccnc1)c1ccc(Cl)cc1 [Example 62]	4.68
Clc1ccc(CNCCCn2cnc(Cl)c2Cl)cc1 [Example 64, dihydrochloride]	4.74
CC(NCCCn1ccnc1)c1ccc(C(F)(F)F)cc1 (stereo not drawn) [Example 11]	4.35
CCC(CC)(NCCCn1cnc(CO)c1)c1ccccc1 [Example 86]	4.11
CC(NCCCn1ccnc1)c1ccc(Cl)c(F)c1 (stereo not drawn) [Example 10, dihydrochloride]	4.40
Cc1ncn(CCCNC(C)c2ccc(Cl)cc2)c1C (stereo not drawn) [Example 24, dihydrochloride]	4.96
CCC(CC)(NCCCn1cnc(COC(C)=O)c1)c1ccccc1 [Example 103]	4.29
CC(C)(NCCCn1ccnc1)c1ccc(OCc2ccccc2)cc1 [Example 87]	4.92
CC(C)(NCCCn1ccnc1)c1ccc(-c2ccccc2)cc1 [Example 81, dihydrochloride]	4.85
Clc1ccc(C2(NCCCn3ccnc3)CC2)cc1 [Example 82, dihydrochloride]	4.80
CC(NCCCn1ccnc1)c1ccc(Cl)cc1 (single isomer, unassigned; (+)) [Example 56, dihydrochloride]	4.80
c1ccc(C(NCCCn2ccnc2)c2ccccc2)cc1 [Example 34, dihydrochloride]	4.49
CCOC(=O)c1ccc(C(C)(C)NCCCn2ccnc2)cc1 [Example 77]	4.09
CC(NCCCn1ccnc1)c1ccc(Cl)c(Cl)c1 (stereo not drawn) [Example 3]	4.22
CC(C)(NCCCCCCCCn1ccnc1)c1ccc(Cl)cc1 [Example 63]	5.15
CC(C)(NCCCn1cncc1CO)c1ccc(Cl)c(Cl)c1 [Example 84]	4.62
COC(=O)c1ccc(CNCCCn2ccnc2C)cc1 [Example 49]	4.35
CCc1ccc(C(C)NCCCn2ccnc2)cc1 (stereo not drawn) [Example 21]	4.19
CC(NCCCn1ccnc1)c1ccc(Br)cc1 (stereo not drawn) [Example 14]	4.22
c1ccc(Oc2ccc(CNCCCn3ccnc3)cc2)cc1 [Example 39]	5.00
Cc1ccc(C(C)(C)NCCCn2ccnc2)cc1 [Example 75, dihydrochloride]	4.33
Cc1cn(CCCNC(C)c2ccc(Cl)cc2)c(C)n1 (stereo not drawn) [Example 31, dihydrochloride]	5.00
CCc1nccn1CCCNC(C)c1ccc(Cl)cc1 (stereo not drawn) [Example 53, dihydrochloride]	4.51
CC(NCC(C)(C)Cn1ccnc1)c1ccc(Cl)cc1 (stereo not drawn) [Example 58]	4.26
CC(NCCCn1ccnc1)c1ccc(Cl)c(C(F)(F)F)c1 (stereo not drawn) [Example 9]	4.66
CC(NCCCn1cnc(Cl)c1Cl)c1ccc(Cl)cc1 (stereo not drawn) [Example 67]	4.74
CC(NCCCn1ccnc1-c1ccccc1)c1ccc(Cl)cc1 (stereo not drawn) [Example 25, dihydrochloride hydrate]	4.72
CC(C)(CNCc1ccc(Cl)cc1)Cn1ccnc1 [Example 61]	4.15
CC(NCCCn1ccnc1)c1ccc(N(C)C)cc1 (stereo not drawn) [Example 6]	4.04
CCC(CC)(NCCCn1ccnc1)c1ccc(Cl)cc1 [Example 76, dihydrochloride]	4.82
Cc1cn(CCCNCc2ccc(Cl)cc2)cn1 [Example 44, dihydrochloride]	4.52
Cc1cc(Cl)ccc1CNCCCn1ccnc1 [Example 40, dihydrochloride]	4.30
CC(NCCCn1ccnc1)c1ccc(Cl)c(Cl)c1Cl (stereo not drawn) [Example 13, dihydrochloride]	4.89
CC(NCCCn1ccnc1)c1ccc(Cl)cc1 (stereo not drawn) [Example 1, dihydrochloride]	4.26
CC(NCCCn1ccnc1)c1ccc(OCc2ccccc2)cc1 (stereo not drawn) [Example 5]	4.92
CC(NCCCn1ccnc1)c1ccc(Cl)cc1O (stereo not drawn) [Example 29, dihydrochloride]	4.47

###

Each record here notes measured IC50.
System: Zymosan Stimulated Macrophaqes
Experiment: Test A: Inhibition of Arachidonic Acid Release from Zymosan Stimulated Macrophages
Type: cell-based, mouse (female MF1)
Settings: Mus musculus, Macrophage, 5 h, inhibition of arachidonic acid release; six concentrations (100, 50, 20, 10, 5 and 1 μM); 5 h with zymosan; read-out: Test A IC50
From the text: Inhibition of Arachidonic Acid Release from Zymosan Stimulated Macrophaqes Female MF1 mice (weighing 20 to 25 g) were killed using a rising concentration of CO2. The mice were laid on their backs and the abdomens wiped with 70% alcohol. […] The extracts from all the mice were pooled and this pooled cell suspension was counted using a Coulter counter and adjusted to a final cell count of 1-1.3×10^6 cells/ml prior to labelling with [^3 H]-arachidonic acid. […]
Where a name gives a salt, the structure may show the parent alone.
value_type: IC50

compound	value_type	result
Cc1cn(CCCNCc2ccc(Cl)cc2)c(-c2ccccc2)n1 [Example 48]	IC50	15 µM
CCOC(=O)C=Cc1ccc(CNCCCn2ccnc2C)cc1 [Example 51, dihydrochloride]	IC50	20 µM
CCCOC(=O)c1ccc(CNCCCn2ccnc2C)cc1 [Example 94]	IC50	20 µM
Cc1nccn1CCCNCc1ccc(Cl)cc1 [Example 43]	IC50	49 µM
Cc1cn(CCCNC(C)c2ccc(Cl)cc2)c(Cc2ccccc2)n1 (centres unmarked) [Example 32]	IC50	6 µM

###

Tested on: Zymosan Stimulated Macrophaqes
Assay: Test A: Inhibition of Arachidonic Acid Release from Zymosan Stimulated Macrophages
Format: cell-based, mouse (female MF1)
Conditions: inhibition of arachidonic acid release; six concentrations (100, 50, 20, 10, 5 and 1 μM); 5 h with zymosan; listed as 68 (1); read-out: Test A IC50
pIC50: −log10 of the molar value.
value_type: pIC50

molecule	target_or_test_system	value_type	numeric_value
CC(C)(NCCCn1ccnc1)c1ccc(Cl)cc1 [Example 59]	Zymosan Stimulated Macrophaqes	pIC50	4.46

###

Test system: Zymosan Stimulated Macrophaqes
Assay: Test A: Inhibition of Arachidonic Acid Release from Zymosan Stimulated Macrophages
Type: cell-based, mouse (female MF1)
Conditions: Mus musculus, Macrophage, 5 h, inhibition of arachidonic acid release; six concentrations (100, 50, 20, 10, 5 and 1 μM); 5 h with zymosan; read-out: Test A IC50
Each record here notes measured IC50.
value_type: IC50 (µM)

compound	value_type	numeric_value
CC(C)(NCCCn1cnc([N+](=O)[O-])c1)c1ccc(Cl)cc1	IC50	70
CCOC(=O)c1c(C)ncn1CCCNC(C)(C)c1ccc(Cl)cc1	IC50	20
CCC(c1ccc(Cl)cc1)N(C)CCCn1ccnc1 (stereo not shown)	IC50	62
CCc1nccn1CCCNCc1ccc(Cl)cc1	IC50	26
CC(NCCCn1ccnc1)c1cccc(Cl)c1 (stereo not shown)	IC50	94
Clc1ccc(C(NCCCn2ccnc2)c2ccccc2)cc1 (stereo not shown)	IC50	11
CCC(CC)(NCCCn1ccnc1)c1ccccc1	IC50	54
CC(NCCCCCn1ccnc1)c1ccc(Cl)cc1 (stereo not shown) [Example 55, dioxalate]	IC50	32
Cc1ncn(CCCNC(C)(C)c2ccc(Cl)cc2)c1C	IC50	11
CC(c1ccc(Cl)cc1)N(C)CCCn1ccnc1 (stereo not shown)	IC50	62

###

Each record here notes measured IC50.
Tested on: Zymosan Stimulated Macrophaqes
Experiment: Test A: Inhibition of Arachidonic Acid Release from Zymosan Stimulated Macrophages
Assay type: cell-based, mouse (female MF1)
Conditions: Mus musculus, Macrophage, 5 h, inhibition of arachidonic acid release; six concentrations (100, 50, 20, 10, 5 and 1 μM); 5 h with zymosan; read-out: Test A IC50
From the text: Inhibition of Arachidonic Acid Release from Zymosan Stimulated Macrophaqes Female MF1 mice (weighing 20 to 25 g) were killed using a rising concentration of CO2. The mice were laid on their backs and the abdomens wiped with 70% alcohol. […] The extracts from all the mice were pooled and this pooled cell suspension was counted using a Coulter counter and adjusted to a final cell count of 1-1.3×10^6 cells/ml prior to labelling with [^3 H]-arachidonic acid. […]
Structures can show the parent of a compound that is named as a salt.

compound	IC50 [µM]
CC(C)(NCCCn1ccnc1)c1ccc2ccccc2c1 [Example 83, dihydrochloride hemihydrate]	28
CC(NCCCCn1ccnc1)c1ccc(Cl)cc1 (centres unmarked)	56
Clc1ccc(CNCCCn2ccnc2)cc1Cl	21
CC(C)c1nccn1CCCNC(C)c1ccc(Cl)cc1 (centres unmarked)	18
FC(F)(F)c1ccc(CNCCCn2ccnc2)cc1 [Example 37, dihydrochloride]	75
CC(=O)OCc1ncn(CCCNC(C)(C)c2ccc(Cl)cc2)c1C [Example 98, acetate dihydrochloride]	45
CC(C)(NCCCn1cncc1CO)c1ccc(Cl)cc1 [Example 88, dihydrochloride]	60
CC(C)(NCCCn1cnc(CO)c1)c1ccc(Cl)cc1	85
Cc1nccn1CCCNC(C)(C)c1ccc(Cl)cc1	9
CCOC(=O)c1ccc(C(C)NCCCn2ccnc2)cc1 (centres unmarked)	70
CN(CCCn1ccnc1)C(C)(C)c1ccc(Cl)cc1	75
CC(NCCCn1ccnc1)c1ccc(OC(F)(F)F)cc1 (centres unmarked)	22
Clc1ccc(CNCCCCn2ccnc2)cc1 [Example 46, dihydrochloride]	86
CC(C)(NCCCCn1ccnc1)c1ccc(Cl)cc1	40
CCOc1cc(Cl)ccc1C(C)NCCCn1ccnc1 (centres unmarked)	50
COc1cc(C)c(CNCCCn2ccnc2)c(C)c1 [Example 50, dihydrochloride]	31
Cc1ccc(C(C)(C)NCCCn2ccnc2C)cc1 [Example 73, dihydrochloride]	49
Clc1ccc(CNCCCn2ccnc2)c(Cl)c1	58
Cc1nccn1CCCN(C)Cc1ccc(Cl)cc1	60
Cc1nc(C)n(CCCNC(C)c2ccc(Cl)cc2)c1C (centres unmarked)	13
